Assay: AUC (0 to 24 hrs) in dog at 10 mg/kg, po administered as API capsule
Type: ADME, organism-based, Canis lupus familiaris
Parameters: time < 24 hr, dose 10 mg/kg, route oral
Details: in vivo
Property Label: AUC(0-t) at 24 h (ng·h/mL)
Expressed in ng·h/mL, but write only the number.

Item CNc1ncc2cc(-c3cc(NC(=O)NCCC(C)(C)C)c(F)cc3C)c(C)nc2n1 [LY-3009120] has what recorded AUC(0-t) at 24 h?
20.5

---

Target: UniProt:Q9P2K8
Sequence (Q9P2K8 whole entry): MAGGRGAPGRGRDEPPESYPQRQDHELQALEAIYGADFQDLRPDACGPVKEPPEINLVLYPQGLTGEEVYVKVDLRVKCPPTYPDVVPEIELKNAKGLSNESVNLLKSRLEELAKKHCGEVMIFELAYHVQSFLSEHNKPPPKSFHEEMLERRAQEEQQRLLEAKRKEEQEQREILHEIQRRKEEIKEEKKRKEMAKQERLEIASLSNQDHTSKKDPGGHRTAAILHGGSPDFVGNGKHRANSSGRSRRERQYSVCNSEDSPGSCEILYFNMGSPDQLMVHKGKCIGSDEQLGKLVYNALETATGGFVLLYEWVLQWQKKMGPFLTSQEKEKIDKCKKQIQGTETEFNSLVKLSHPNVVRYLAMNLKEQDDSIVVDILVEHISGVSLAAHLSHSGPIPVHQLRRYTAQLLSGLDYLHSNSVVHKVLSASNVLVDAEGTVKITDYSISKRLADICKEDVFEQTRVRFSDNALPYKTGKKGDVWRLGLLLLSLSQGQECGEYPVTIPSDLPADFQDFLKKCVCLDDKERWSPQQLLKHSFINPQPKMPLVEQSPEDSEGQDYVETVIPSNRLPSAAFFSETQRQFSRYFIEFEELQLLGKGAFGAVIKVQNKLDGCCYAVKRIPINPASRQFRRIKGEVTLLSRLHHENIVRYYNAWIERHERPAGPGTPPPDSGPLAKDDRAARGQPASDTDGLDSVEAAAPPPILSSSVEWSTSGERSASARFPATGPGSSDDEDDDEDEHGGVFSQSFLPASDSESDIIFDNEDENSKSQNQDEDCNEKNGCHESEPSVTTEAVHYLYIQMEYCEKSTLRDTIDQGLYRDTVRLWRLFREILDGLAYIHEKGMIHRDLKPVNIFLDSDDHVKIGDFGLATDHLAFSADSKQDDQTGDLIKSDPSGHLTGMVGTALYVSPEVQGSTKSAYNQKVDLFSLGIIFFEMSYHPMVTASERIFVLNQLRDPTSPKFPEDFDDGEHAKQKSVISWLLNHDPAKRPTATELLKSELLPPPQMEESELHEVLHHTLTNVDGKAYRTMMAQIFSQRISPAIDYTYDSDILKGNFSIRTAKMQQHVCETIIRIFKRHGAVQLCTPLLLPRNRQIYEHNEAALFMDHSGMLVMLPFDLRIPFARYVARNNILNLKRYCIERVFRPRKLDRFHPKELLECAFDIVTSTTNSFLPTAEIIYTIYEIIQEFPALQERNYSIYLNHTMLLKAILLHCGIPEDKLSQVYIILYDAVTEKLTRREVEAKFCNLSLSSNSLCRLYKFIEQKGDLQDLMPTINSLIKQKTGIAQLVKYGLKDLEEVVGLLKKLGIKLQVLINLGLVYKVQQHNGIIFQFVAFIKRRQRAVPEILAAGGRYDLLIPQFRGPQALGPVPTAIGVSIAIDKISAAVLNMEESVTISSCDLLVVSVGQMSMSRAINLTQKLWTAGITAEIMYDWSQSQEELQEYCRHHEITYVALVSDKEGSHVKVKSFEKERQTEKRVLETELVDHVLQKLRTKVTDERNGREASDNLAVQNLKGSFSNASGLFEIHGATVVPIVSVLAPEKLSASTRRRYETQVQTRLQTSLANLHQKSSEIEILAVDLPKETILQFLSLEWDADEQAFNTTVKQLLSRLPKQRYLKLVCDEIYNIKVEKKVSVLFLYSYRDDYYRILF
Test: Competitive binding affinity to GCN2 in human A375 cells after 15 mins in presence of ATP analogue
Property Label: IC50 (nM)
Expressed in nM, but write only the number.

Provide value of IC50 for this record tested with UniProt:Q9P2K8: CNc1ncc2cc(-c3cc(NC(=O)NCCC(C)(C)C)c(F)cc3C)c(C)nc2n1
450

---

Target: Dual specificity mitogen-activated protein kinase kinase 5 (Homo sapiens, UniProt Q13163)
Sequence (Q13163 whole entry): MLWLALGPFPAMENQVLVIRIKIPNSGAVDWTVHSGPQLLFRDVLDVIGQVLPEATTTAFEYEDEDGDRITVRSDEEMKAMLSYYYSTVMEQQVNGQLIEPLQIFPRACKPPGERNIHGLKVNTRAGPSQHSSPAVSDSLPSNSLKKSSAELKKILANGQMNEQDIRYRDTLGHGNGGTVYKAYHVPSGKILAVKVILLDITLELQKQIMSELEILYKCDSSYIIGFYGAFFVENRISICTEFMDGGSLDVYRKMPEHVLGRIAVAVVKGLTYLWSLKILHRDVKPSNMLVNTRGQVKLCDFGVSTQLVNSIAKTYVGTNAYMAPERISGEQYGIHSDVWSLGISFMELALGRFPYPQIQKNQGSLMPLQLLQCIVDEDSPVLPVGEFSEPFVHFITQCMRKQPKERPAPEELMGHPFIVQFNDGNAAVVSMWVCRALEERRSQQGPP
Assay: Competitive binding affinity to MAP2K5 in human A375 cells after 15 mins in presence of ATP analogue
Property Label: pIC50
Give only the number. pIC50 is defined as minus log10 of concentration in molar units.

Item CNc1ncc2cc(-c3cc(NC(=O)NCCC(C)(C)C)c(F)cc3C)c(C)nc2n1 has what recorded pIC50?
6.10

---

Test: Oral bioavailability in Sprague-Dawley rat at 10 mg/kg administered as suspension in 1% HEC
Format: ADME, organism-based
Details: in vivo
Property Label: bioavailability (%)
Expressed in %, but write only the number.

Item CNc1ncc2cc(-c3cc(NC(=O)NCCC(C)(C)C)c(F)cc3C)c(C)nc2n1 has what recorded bioavailability?
3.6

---

Test: Half life in monkey at 10 mg/kg, po administered as suspension in 20% cyclodextrin
Format: ADME, organism-based, Macaca mulatta
Conditions: rhesus monkey, in vivo
Property Label: half-life (h)
Expressed in h, but write only the number.

Item CNc1ncc2cc(-c3cc(NC(=O)NCCC(C)(C)C)c(F)cc3C)c(C)nc2n1 has what recorded half-life?
3.5

---

Assay: Cmax in dog at 10 mg/kg, po administered as API capsule
Assay type: ADME, organism-based, Canis lupus familiaris
Design: dose 10 mg/kg, route oral
Details: in vivo
Property Label: Cmax (ng/mL)
Expressed in ng/mL, but write only the number.

Item CNc1ncc2cc(-c3cc(NC(=O)NCCC(C)(C)C)c(F)cc3C)c(C)nc2n1 has what recorded Cmax?
2.8

---

Molecular target: Dual specificity mitogen-activated protein kinase kinase; MEK1/2 (Homo sapiens, UniProt P36507+Q02750)
Assay: Inhibition of MEK (unknown origin)
Reported values of IC50 for individual entries
Expressed in µM, but write only the number.

Would you please look over these solved cases?
Item CNc1cc2c(cn1)cc(-c1ccc(F)c(NC(=O)Nc3cc(C(C)(C)C)no3)c1)c(=O)n2[C@H]1CCOC1 has what recorded IC50?
2.9

Item CNc1cc2nc(C)c(-c3cc(NC(=O)NCCC(C)(C)C)c(F)cc3C)cc2cn1 has what recorded IC50?
5.9

Item CCCS(=O)(=O)Nc1ccc(F)c(C(=O)c2c[nH]c3ncc(-c4ccc(Cl)cc4)cc23)c1F has what recorded IC50?
1.5

More entries:
Item CCn1c(=O)c(-c2ccc(F)c(NC(=O)Nc3cc(C(C)(C)C)no3)c2)cc2cnc(NC)cc21 has what recorded IC50?
4

Item CCn1c(=O)c(-c2cc(NC(=O)NCCC(C)(C)C)c(F)cc2C)cc2cnc(NC)cc21 has what recorded IC50?
2.5

Item CNc1cc2nc(C)c(-c3cc(NC(=O)NC[C@@H](O)C(C)(C)C)c(F)cc3C)cc2cn1 has what recorded IC50?
15
